- Test system: TK-10
- EXPERIMENT SUMMARY: NCI tumour cell line growth inhibition, 48 h
Active and inactive are the calls of the source. Rule as the data show it: active = GI50 up to about 1.1 µM and inactive = higher.
MEASURED ATTRIBUTE: GI50

compound="COC(=O)C1=C(OC(=O)/C(=C/c2ccccc2)c2ccc(OC)cc2)C(C(=O)OC)[C@@]2(O)[C@@H](C(=O)OC)[C@H](C)C[C@@H]1[C@@H]2C(=O)OC (some centres undefined)" measured_attribute=GI50 measured_result="> 100 µM (inactive)"
compound="COC(=O)C(NC(=O)C(CC(=O)OC(C)(C)C)NC(=O)OC(C)(C)C)C(O)c1ccccc1 (centres undefined)" measured_attribute=GI50 measured_result="> 100 µM (inactive)"
compound="CC12C(=CC(=O)CC1SCCS(=O)(=O)O)C(C#N)=C(N)N2c1ccc(Cl)c(Cl)c1 (centres undefined)" measured_attribute=GI50 measured_result="> 100 µM (inactive)"
compound=Cc1ccccc1/N=N/c1ccc(N/N=C2/CCCNC2=O)c(C)c1 measured_attribute=GI50 measured_result="> 100 µM (inactive)"
compound=CC(C)(C)OC(=O)N/C(C=O)=C\C1CCCCC1 measured_attribute=GI50 measured_result="17.7 µM (inactive)"
compound=Cc1ccc(/C=C2\CCCCC2=O)cc1 measured_attribute=GI50 measured_result="> 100 µM (inactive)"
compound=COc1cc2c(cc1OC)-c1[nH]c3ccc(C#N)cc3c1CC(=O)N2 measured_attribute=GI50 measured_result="> 27 µM (inactive)"
compound=Cc1cc(NS(=O)(=O)c2ccc(/N=[N+](\[O-])c3ccc(S(=O)(=O)Nc4cc(C)on4)cc3)cc2)no1 measured_attribute=GI50 measured_result="> 100 µM (inactive)"
compound=CNc1cc(Cl)ccc1C(=O)N1CCC[C@H]1CO measured_attribute=GI50 measured_result="> 100 µM (inactive)"

Numbers sourced from ChEMBL document CHEMBL1201862.
